Values were extracted from PubChem BioAssay (NCATS).

Test Method Notes: Quantitative High-Throughput drug screen in 47 multiple myeloma cell lines against the NCATS MIPE library collection: KMM1_JCRB cell viability assay (AID 1918960); also: nearly all actives have a fitted effect of over 30% in size
Assay Context: KMM1 myeloma viability, CellTiter-Glo ATP luminescence, 48 h; series mostly up to 45.8 µM
Results filed as inconclusive are left out. Active and inactive are the calls of the source. Calls follow the shape of the dose curve; as a rule, active = well fitted cell-killing curve with a large enough effect; inconclusive = small, poorly fitted or top-dose-only effect, or effect the other way; inactive = no such curve, though single readings can be large or run the other way.
Parameter call: string, one of Y (active), N (inactive)

q: What classification did COc1cc2c(cc1OC)CN(CCc1ccc(NC(=O)c3cc(OC)c(OC)cc3NC(=O)c3cnc4ccccc4c3)cc1)CC2 end up with in this test?
a: N

q: What was the test verdict on COC1CCC(N(C(=O)C2CCC(C)CC2)c2cc(C3=CCCCC3)sc2C(=O)O)CC1 (stereo unspecified) ?
a: N

q: // return assay outcome for CC(C)OC(=O)CCCC=CC[C@@H]1[C@H](C=C[C@@H](O)COc2cccc(C(F)(F)F)c2)[C@H](O)C[C@@H]1O
a: N

q: What is the recorded call for this molecule in the test? C=C1C(=O)OC2C=C(C)CCC=C(C)CCC12 (stereo unspecified)
a: Y

q: Just curious, what result did OC[C@H]1O[C@@H](n2cnc3c2NC=NC[C@@H]3O)C[C@H]1O get here?
a: N

q: # outcome recorded in this test, key = CC1CCC(C(=O)N(c2cc(C#CC(C)(C)C)sc2C(=O)O)C2CCC(O)CC2)CC1 (stereo unspecified)
a: N

q: Which outcome was entered for the molecule COC(=O)N[C@H](C(=O)N1CCC[C@@H]1c1ncc(-c2ccc(-c3ccc(-c4cnc([C@@H]5CCCN5C(=O)[C@@H](NC(=O)OC)C(C)C)[nH]4)cc3)cc2)[nH]1)C(C)C in this test?
a: Y

q: What classification did O=C1c2c(O)cc(O)cc2O[C@H](c2cc(O)c(O)c(O)c2)[C@H]1O end up with in this test?
a: N

q: For this molecule, state the assay outcome: CC[C@@]1(O)C[C@H](O[C@H]2C[C@H](N(C)C)[C@H](O[C@H]3C[C@H](O)[C@H](O[C@H]4CCC(=O)[C@H](C)O4)[C@H](C)O3)[C@H](C)O2)c2c(cc3c(c2O)C(=O)c2c(O)cccc2C3=O)[C@@H]1C(=O)OC
a: Y

q: Dear colleague, could you share the recorded outcome for NC1=N[C@@]2(c3cc(NC(=O)c4ccc(F)cn4)ccc3F)COC[C@@H]2CS1 when you have a moment?
a: Y

q: Hello, I am checking results. What call was entered for CC(C)C(=O)Oc1ccc(CO)cc1[C@H](CCN(C(C)C)C(C)C)c1ccccc1 ?
a: N

q: Given O=c1ccn([C@@H]2O[C@H](CO)[C@H](O)[C@H]2O)c(=O)[nH]1 , state the outcome it received in this test.
a: N

q: Recorded call for O=c1cc(CN2CCOCC2)occ1OCCCCCSc1ccnc2cc(C(F)(F)F)ccc12 ?
a: Y

q: Which outcome was entered for the molecule CCOC1OC(=O)C[C@H]1NC(=O)[C@@H]1CCCN1C(=O)[C@@H](NC(=O)c1ccc(N)c(Cl)c1)C(C)(C)C (stereo partly specified) in this test?
a: Y

q: What outcome does the record of this test show for O=C(N[C@@H](c1ccccc1)[C@@H]1CCCCN1)c1cccc(C(F)(F)F)c1Cl ?
a: N

q: Hi, do you know how CO[C@H]1C=CC=C(C)C(=O)NC2=CC(=O)C(NCCN(C)C)=C(C[C@@H](C)C[C@H](OC)[C@@H](O)[C@@H](C)C=C(C)[C@@H]1OC(N)=O)C2=O came out in this test?
a: Y
